MEASUREMENT_TARGET: T1, human CX3CR1 (human, UniProt P49238 1-355)
T1 sequence: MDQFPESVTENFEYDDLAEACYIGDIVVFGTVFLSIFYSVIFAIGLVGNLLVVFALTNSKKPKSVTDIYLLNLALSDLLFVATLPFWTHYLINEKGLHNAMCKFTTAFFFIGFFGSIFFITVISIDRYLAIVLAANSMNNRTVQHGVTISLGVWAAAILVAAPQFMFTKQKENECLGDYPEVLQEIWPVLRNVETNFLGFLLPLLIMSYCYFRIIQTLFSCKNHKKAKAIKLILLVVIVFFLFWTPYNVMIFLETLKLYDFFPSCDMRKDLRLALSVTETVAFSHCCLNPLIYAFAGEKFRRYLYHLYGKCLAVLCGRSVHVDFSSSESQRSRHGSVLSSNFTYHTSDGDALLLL
METHOD_SUMMARY: cell-based or functional assay
Quick reference: % block, fractalkine induced chemotaxis of the listed items.
Form entry: value (%) — number only.

Recorded % block, fractalkine induced chemotaxis, per entry:
[
  {
    "BINDER": "CX3CR1BII026 (VHH, expressed in E. coli as described for the monovalent VHHs) EVQLVESGGGLVQAGGSLRLSCVASGRTFSSYAMGWFRQAPGKERAFVAGISGSASRKYYADSVKGRFTVSRDNARNTVYLQMNSLKPEDTAVYYCAASNSYPKVQFDYYGQGTQVTVSSGGGGSGGGGSGGGGSGGGGSGGGGSGGGGSGGGGSEVQLVESGGGSVQAGESLRLSCAASGSIFSSNAMAWYRQAPGKRRDLVAAINSVGVTKYADSVKGRFTISRDNAKNTVYLQMNSLKPEDTAVYYCTSDPRRGWDTRYWGQGTQVTVSS",
    "REPORTED_ENDPOINT": "% block, fractalkine induced chemotaxis",
    "UNITS_LABEL": "%",
    "VALUE": 98
  },
  {
    "BINDER": "CX3CR1BII019 (VHH, expressed in E. coli as described for the monovalent VHHs) EMQLVESGGGSVQAGESLRLSCAASGSIFSSNAMAWYRQAPGKQRDLVALINSVGITKYADSVKGRFTISRDNAKNTVYLQMNSLKPEDTAVYYCTSDGRRGWDTRYWGQGTQVTVSSGGGGSGGGGSGGGGSGGGGSGGGGSGGGGSGGGGSEMQLVESGGGSVQAGESLRLSCAASGSIFSSNAMAWYRQAPGKQRDLVALINSVGITKYADSVKGRFTISRDNAKNTVYLQMNSLKPEDTAVYYCTSDGRRGWDTRYWGQGTQVTVSS",
    "REPORTED_ENDPOINT": "% block, fractalkine induced chemotaxis",
    "UNITS_LABEL": "%",
    "VALUE": 85
  },
  {
    "BINDER": "CX3CR1BII018 (VHH, A647 label where used as labeled competitor (Example 14), expressed in E. coli as described for the monovalent VHHs; also called A647-018; A647 labeled CX3CR1BII018) EVQLVESGGGSVQAGESLRLSCAASGSIFSSNAMAWYRQAPGKRRDLVAAINSVGVTKYADSVKGRFTISRDNAKNTVYLQMNSLKPEDTAVYYCTSDPRRGWDTRYWGQGTQVTVSSGGGGSGGGGSGGGGSGGGGSGGGGSGGGGSGGGGSEVQLVESGGGSVQAGESLRLSCAASGSIFSSNAMAWYRQAPGKRRDLVAAINSVGVTKYADSVKGRFTISRDNAKNTVYLQMNSLKPEDTAVYYCTSDPRRGWDTRYWGQGTQVTVSS",
    "REPORTED_ENDPOINT": "% block, fractalkine induced chemotaxis",
    "UNITS_LABEL": "%",
    "VALUE": 98
  },
  {
    "BINDER": "CX3CR1BII027 (VHH, expressed in E. coli as described for the monovalent VHHs) EVQLVESGGGLVQAGGSLRLSCVASGRTFSSYAMGWFRQAPGKERAFVAGISGSASRKYYADSVKGRFTVSRDNARNTVYLQMNSLKPEDTAVYYCAASNSYPKVQFDYYGQGTQVTVSSGGGGSGGGGSGGGGSGGGGSGGGGSGGGGSGGGGSEVQLVESGGGSVQAGESLRLSCAASGSIFSSNAMAWYRQAPGKQRDLVAGINSVGITKYADSVKGRFTISRDNAKNTAYLQMNSLKPEDTAVYYCTSDPRRGWDTRYWGQGTLVTVSS",
    "REPORTED_ENDPOINT": "% block, fractalkine induced chemotaxis",
    "UNITS_LABEL": "%",
    "VALUE": 98
  },
  {
    "BINDER": "CX3CR1BII012 (VHH, expressed in E. coli as described for the monovalent VHHs) EVQLVESGGGSVQAGGSLRLSCAASGSIFSSNAMAWYRQAPGKQRDLVAGINSVGITKYADSVKGRFTISRDNAKNTVYLQMNSLKPEDTAVYYCTSDPRRGWDTRYWGQGTLVTVSSGGGGSGGGGSGGGGSGGGGSGGGGSGGGGSGGGGSKVQLVESGGGLVQPGGSLRLSCATSGTIFSNNAMGWYRQAPGKKRDLVASISSSGSTNYADSVKGRFTVSRDNDKNTGYLQMNSLKPEDTGVYYCTLDARRGWNTAYWGQGAQVTVSS",
    "REPORTED_ENDPOINT": "% block, fractalkine induced chemotaxis",
    "UNITS_LABEL": "%",
    "VALUE": 78
  }
]

Asked: For the binder shown here, CX3CR1BII007 (VHH, expressed in E. coli as described for the monovalent VHHs (c-myc, His6 tags there)) EVQLVESGGGLVQAGGSLRLSCVASGRTFSSYAMGWFRQAPGKERAFVAGISGSASRKYYADSVKGRFTVSRDNARNTVYLQMNSLKPEDTAVYYCAASNSYPKVQFDYYGQGTQVTVSSGGGGSGGGGSGGGGSGGGGSGGGGSGGGGSGGGGSKVQLVESGGGLVQPGGSLRLSCATSGTIFSNNAMGWYRQAPGKKRDLVASISSSGSTNYADSVKGRFTVSRDNDKNTGYLQMNSLKPEDTGVYYCTLDARRGWNTAYWGQGAQVTVSS , give the reported % block, fractalkine induced chemotaxis.
Given back: 101
